Numbers sourced from the supplement of paper PMC3334620.

Biological target: Stb5 (UniProt P38699)
Sequence: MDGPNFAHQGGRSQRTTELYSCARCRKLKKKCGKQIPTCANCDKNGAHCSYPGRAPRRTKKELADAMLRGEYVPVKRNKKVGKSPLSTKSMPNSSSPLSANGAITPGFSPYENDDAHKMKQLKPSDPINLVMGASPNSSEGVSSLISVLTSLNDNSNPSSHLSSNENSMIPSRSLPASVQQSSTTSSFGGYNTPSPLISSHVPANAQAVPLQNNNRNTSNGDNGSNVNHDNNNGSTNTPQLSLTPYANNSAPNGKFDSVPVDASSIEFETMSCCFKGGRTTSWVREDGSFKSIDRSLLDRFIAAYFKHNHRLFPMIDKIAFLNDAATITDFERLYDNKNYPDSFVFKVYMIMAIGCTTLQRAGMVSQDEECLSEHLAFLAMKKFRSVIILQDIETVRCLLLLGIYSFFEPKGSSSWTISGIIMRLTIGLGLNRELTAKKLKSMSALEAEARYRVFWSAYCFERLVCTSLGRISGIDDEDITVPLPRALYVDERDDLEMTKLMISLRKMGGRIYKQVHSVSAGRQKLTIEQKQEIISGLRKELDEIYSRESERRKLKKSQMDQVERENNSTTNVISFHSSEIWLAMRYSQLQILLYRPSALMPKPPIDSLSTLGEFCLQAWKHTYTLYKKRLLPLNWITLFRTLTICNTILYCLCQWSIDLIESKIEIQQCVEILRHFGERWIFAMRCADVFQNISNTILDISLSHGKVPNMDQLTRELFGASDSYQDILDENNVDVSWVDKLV
Experiment: PBM E-score (8-mer binding enrichment) (E-score (-0.5 to 0.5)); higher = stronger / more preferred TF binding
Details: protein concentration: 200 nM; construct: GST-full length
The full ranking holds about 33,000 sequences; the median of “E-score (-0.5 to 0.5)” is about -0.054, and the highest 2% start at about 0.35. The entries come from a sample that favours the highest values as a whole.
Label rule, in plain words: PBM E-score of 0.3 and up is Fulfilled, under 0.3 is Not fulfilled.

Below are worked cases with known answers.
- Seq String: "ATTGCCGG"
  Class Assignment: "Fulfilled"
- Seq String: "AGTGCCAG"
  Class Assignment: "Not fulfilled"
- Seq String: "CCCAGGAA"
  Class Assignment: "Not fulfilled"

Kindly determine if PBM E-score recorded for "GTCCACGA" is above or exactly 0.3.
Not fulfilled

Kindly determine if PBM E-score recorded for "ATTGCCGC" is above or exactly 0.3.
Fulfilled

Kindly determine if PBM E-score recorded for "AAAGACCG" is above or exactly 0.3.
Fulfilled
